Can you tell me kon for the items I'm about to list?
Target: T1, human C5 R885H-mmh (human, UniProt P01031 19-1676)
T1 construct: also called human C5 variant R885H
Experiment: SPR, mAb captured via anti-hFc, 25C

**Q:** Suppose we examine the binder H4H12170P (antibody, human IgG4, V domains shown, Human IgG4 Fc with S108P hinge mutation (H4H)) VH: QVQLVESGGGVVQPGRSLRLSCAASGFTFSGYGMHWVRQAPGKGLEWVALIWLDGSNDYYADSVKGRFTISRDNSKNTLYLQMNRLRAEDTAVYYCARDGPVAAIPDYWGQGTLVTVSS VL: DIQMTQSPSTLSASVGDRVTITCRASQSISRWLAWYQLKPGKAPKLLIYKASSLESGVPSRFSGSGSGTDFTLTISSLQPDDFATYYCQQYNTYSYTFGQGTKLEIK ; what kon value has been reported?
**A:** 409000 M⁻¹ s⁻¹

**Q:** Can you check H4H12169P (antibody, human IgG4, V domains shown, Human IgG4 Fc with S108P hinge mutation (H4H)) VH: EVQLVESGGGLAQPGGSLRLSCAASGFTFRSYAMSWVRQAPGKGPEWVSGIGGNGVTTYYADSVKGRFTISRDNSKNTLFLQMNSLRAEDTAVYYCVQGGLGGYFTGYWGQGTLVTVSS VL: DIQMTQSPSSLSASVGDRVTITCRASQSISTYLNWYQQNPGKAPKLLIFDASSLQSGVPSRFSGSGSGTDFTLTIRGLQPEDFATYYCQQSYSAPLTFGGGTKVEIK next?
**A:** 484000 M⁻¹ s⁻¹

**Q:** And then H4H12159P (antibody, human IgG4, V domains shown, Human IgG4 Fc with S108P hinge mutation (H4H)) VH: QVQLVESGGGVVQPGRSLRLSCGASGFTFSTYGMHWVRQAPGKGLEWVAVIWDDGNNKYYADSVKGRFTISRDNSKNTLYLQMNSLRAEDTAVYYCARDSEVAPVGDYWGQGTLVTVSS VL: DIQMTQSPSTLSASVGDRVTIICRASQSINRWLAWYQQKPGKAPKLLIYKASSLESGVPSRFSGSGSGTEFTLTISSLQPDDFAAYYCQQYNDYSYTFGQGTKLEIK , what is it?
**A:** 706000 M⁻¹ s⁻¹
